Biological target: Glycogen synthase kinase-3 beta (Homo sapiens)
Sequence (P49841 whole entry): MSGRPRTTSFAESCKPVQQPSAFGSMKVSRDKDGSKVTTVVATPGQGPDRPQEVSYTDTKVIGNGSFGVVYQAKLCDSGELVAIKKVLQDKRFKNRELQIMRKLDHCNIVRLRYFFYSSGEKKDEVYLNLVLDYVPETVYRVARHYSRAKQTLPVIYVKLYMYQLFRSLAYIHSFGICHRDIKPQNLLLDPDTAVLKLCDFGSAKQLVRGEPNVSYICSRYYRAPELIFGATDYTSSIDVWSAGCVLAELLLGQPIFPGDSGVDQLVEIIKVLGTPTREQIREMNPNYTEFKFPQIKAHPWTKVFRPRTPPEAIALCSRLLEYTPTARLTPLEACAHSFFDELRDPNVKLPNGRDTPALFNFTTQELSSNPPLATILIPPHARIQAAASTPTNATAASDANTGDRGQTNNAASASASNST
Experiment: concentration-response blocking of human GSK3B – biochemical, luminescence, cell-free homogeneous, retest, dose response (AID 434954)
metricName: pEC50
pEC50 is defined as minus the log10 of a concentration measured in mol/L.

Could you tell me which pEC50 is on file for Cc1ccsc1CN=Nc1ncnc2nc[nH]c12 ?
5.05

Same question for Nc1nc(Nc2ccccc2F)nc(NCCO)c1[N+](=O)[O-] please.
4.81

Likewise for COCCCNc1nc(N)c([N+](=O)[O-])c(Nc2cc(OC)ccc2OC)n1 ?
6.13

For Cc1ccc2nc(-c3ccccc3)cn2c1 then?
4.54

For O=C(Nc1ccc(O)c2c(=O)cc(-c3ccccc3Cl)oc12)c1ccc(Cl)c(Cl)c1 then?
3.93

Likewise for COc1cccc(-c2c(C(=O)NN=C(C)c3ccncc3)nnn2-c2nonc2N)c1 ?
4.72
